assay: Partition coefficient (logP); assay type: physicochemical; conditions: octanol/water
Item-by-item account of logP

Use these answered entries as a reference point.
Molecule	logP
COP(=S)(OC)Oc1ccc([N+](=O)[O-])c(Cl)c1 [CHLORTHION]	3.45
COP(=S)(OC)Oc1ccc([N+](=O)[O-])cc1 [METHYL PARATHIONE]	2.51
COP(=S)(OC)Oc1ccc([N+](=O)[O-])cc1Cl [DICAPTHON]	3.44
CCOP(=O)(OCC)Oc1ccc(SC)cc1Cl	3.05
CCOP(=O)(OCC)Oc1ccc([N+](=O)[O-])cc1 [PARAOXON]	1.64

Note: attention shifts to another entry.
Inquiry: Look up logP: `CCOP(=O)(OCC)Oc1ccccc1`
Reply text: 1.64

###

Item-by-item account of inhibition
target: GABA-A receptor; anion channel (Rattus norvegicus) (UniProt O09028+P15431+P18506+P18508+P19969+P20236+P23574+P23576+P28471+P28473+P30191+P62813+P63079+P63138+Q91ZM7+Q9ES14); experiment: Displacement of [3H]-GABA from Gamma-aminobutyric acid A receptor binding sites in brain homogenates (relative to 1 mM GABA) at 100 uM; type: tissue-based
Number only, in %; omit the unit.

Use these answered entries as a reference point.
Compound	Measured Number
CC(=O)Nc1ccccc1OP(=O)(Oc1ccccc1NC(C)=O)c1ccccc1	46
CCCCN1C(=O)CCP1(=O)c1ccccc1 (configuration not stated)	17
NCCCP(=O)(O)O	12
CC(=O)Nc1ccccc1OP(=O)(Oc1ccccc1)Oc1ccccc1	54

Inquiry: Look up inhibition: `NCCOP(=O)(O)Oc1ccccc1`
Reply text: 13

Inquiry: Look up inhibition: `NCCOP(=O)(O)c1ccccc1`
Reply text: 15

Inquiry: Look up inhibition: `COP(=O)(OC)c1cccc(N)c1`
Reply text: 13

###

experiment: Partition coefficient (logP); format: physicochemical; settings: octanol/water
// NB: equality with 3 counts as 0; only logP strictly below is 1

Smiles Structure	Assigned Class
COP(=S)(OC)Oc1ccc([N+](=O)[O-])c(C)c1	0
COP(=S)(OC)Oc1ccc([N+](=O)[O-])c(C(C)C)c1	0
COP(=O)(OC)Oc1cc(C)c([N+](=O)[O-])c(C)c1	1
CCOP(=S)(OCC)Oc1ccc(SC)cc1Cl	0

Inquiry: hey, is logP for `COP(=O)(OC)Oc1ccc([N+](=O)[O-])c(Cl)c1` lower than 3 or not?
Reply text: 1

###

Item-by-item account of inhibition
target: GABA B receptor (Rattus norvegicus) (UniProt Q9Z0U4+O88871); experiment: Displacement of [3H]GABA from GABA-B binding sites in brain homogenates (relative to 100 uM baclofen) at 100 uM; format: tissue-based
Record the result as a number with its unit.

Inquiry: Look up inhibition: CC(CNP(=O)(Oc1ccccc1)Oc1ccccc1)NP(=O)(Oc1ccccc1)Oc1ccccc1 (centres undefined)
Reply text: 20%

Inquiry: Look up inhibition: `NCCCP(=O)(O)O`
Reply text: 91%

Inquiry: Look up inhibition: `NCCOP(=O)(O)c1ccccc1`
Reply text: 16%

Inquiry: Look up inhibition: `COP(=O)(OC)c1cccc(N)c1`
Reply text: 13%

From: ChEMBL document CHEMBL1122654
